experiment: yeast display, Sf9 membrane polyspecificity reagent, FACS + sequencing; frameworks hold sequencing errors
Metric: polyreactivity (PSR sort gate)

INSERT INTO assay_data (sequence_string, result) VALUES
  ('QDHLVESGGGLVQAGGSLRLSCAASGRIFTPNAMGWYRQAPGKERELVAAITSGGSTNYADSVKGRFTISRDNAKNTVYLQMNSLKPQDTAVYYCAVRYYYCSKKRNYWGQGTHVTVSS', 'high polyreactivity'),
  ('QVKLVESGGGLVQAGGSLRLSCAASVRIFALNTMGWYREAPGKERELDAAISYRGGSTYYADSVKGRFTISRDNAKTTVYLQMNSLKPEDTAVYYCAARCYSYSRRYGYDYWGQGTQVTVSS', 'high polyreactivity');
